Taken from ChEMBL document CHEMBL1123199.

assay: Antifungal activity against Trichophyton mentagrophytes.; assay type: functional, Arthroderma benhamiae; conditions: Trichophyton benhamiae
Reported Property: MIC (µg/mL)

Check out these entries, answers already filled in.
[[record]]
compound = "CN(C/C=C/c1ccccc1)Cc1ccc2c(c1)C1CCC2C1 (stereo unspecified)"
unit_string = "µg/mL"
value_measured = 6.2

[[record]]
compound = "CN(C/C=C/c1ccccc1)c1cccc2ccccc12"
unit_string = "µg/mL"
value_measured = 6.2

[[record]]
compound = "COc1ccc2c(CN(C)C/C=C/c3ccccc3)cccc2c1"
unit_string = "µg/mL"
value_measured = 1.6


a. CN(C/C=C/c1ccccc1)Cc1cccc2ccccc12 [NAFTIFINE]
b. C(=C\c1ccccc1)/COCc1cccc2ccccc12
Query :: From the items above, decide which of a and b has the lower MIC reading. Refer to your chosen entry by its label in the reply.
Result :: a

----------
system: Aspergillus fumigatus; test: Antifungal activity measured against Aspergillus fumigatus; format: functional
Reported Property: MIC (µg/mL)

A. CN(C/C=C/c1ccccc1)Cc1cc2ccccc2c2ccccc12
B. CN(C/C=C/c1ccccc1)Cc1cccc2sccc12
Query :: Which is greater in MIC, the first item A or the second item B ? Refer to your chosen entry by its label in the reply.
Result :: A
(A: 100 µg/mL, B: 12.5 µg/mL)

A. CN(C/C=C/c1ccccc1F)Cc1cccc2ccccc12
B. CN(C/C=C/c1ccccc1)Cc1csc2ccccc12
Query :: Which is greater in MIC, the first item A or the second item B ? Refer to your chosen entry by its label in the reply.
Result :: A
(A: 100 µg/mL, B: 25 µg/mL)

----------
test system: Aspergillus fumigatus; test: Antifungal activity measured against Aspergillus fumigatus; format: functional
Reported Property: MIC

[[record]]
compound = "CN(C/C=C/C1CC=CCC1)Cc1cccc2ccccc12 (stereo not drawn)"
value_measured = "> 100 µg/mL"

[[record]]
compound = "CN(C/C=C/c1ccc(Cl)cc1)Cc1cccc2ccccc12"
value_measured = "> 100 µg/mL"


Query :: Would you mind telling me what MIC value was observed for "CN(C/C=C/C(=O)O)Cc1cccc2ccccc12" ?
Result :: < 100 µg/mL

----------
// reported Activity per item
system: Cavia porcellus; assay: In vivo antifungal activity by topical treatment of guinea pig dermatophytosis caused by Trichophyton mentagrophytes at a dose of 0.1%; format: functional
Provide the reading as a plain figure in %.

[[record]]
smiles_str = "CCOC(=O)/C=C/CN(C)Cc1cccc2ccccc12"
reported_property = "Activity"
unit_string = "%"
value_measured = 0

[[record]]
smiles_str = "CN(C/C=C/c1ccccc1)Cc1csc2ccccc12"
reported_property = "Activity"
unit_string = "%"
value_measured = 0

[[record]]
smiles_str = "CN(C/C=C/c1ccccc1)Cc1cccc2ccccc12"
reported_property = "Activity"
unit_string = "%"
value_measured = 35

[[record]]
smiles_str = "CN(C/C=C/c1ccccn1)Cc1cccc2ccccc12"
reported_property = "Activity"
unit_string = "%"
value_measured = 0


Query :: Would you mind telling me what Activity value was observed for "CN(C/C=C/C(=O)OCc1ccccc1)Cc1cccc2ccccc12" ?
Result :: 0

Query :: Would you mind telling me what Activity value was observed for "CCN(C/C=C/c1ccccc1)Cc1cccc2ccccc12" ?
Result :: 19

Query :: Would you mind telling me what Activity value was observed for "CN(C/C=C/c1ccccc1)Cc1ccc(Cl)c2ccccc12" ?
Result :: 18

Query :: Would you mind telling me what Activity value was observed for "CN(C/C=C/c1ccsc1)Cc1cccc2ccccc12" ?
Result :: 7

Query :: Would you mind telling me what Activity value was observed for "CN(C/C=C/c1ccccc1)C(=O)c1cccc2ccccc12" ?
Result :: 0

Query :: Would you mind telling me what Activity value was observed for "CN(C/C=C/c1ccccc1)Cc1c2ccccc2cc2ccccc12" ?
Result :: 0

----------
test system: Microsporum canis; assay: Antifungal activity against Microsporum canis; assay type: functional
Reported Property: MIC (µg/mL)

[[record]]
compound = "CN(C/C=C/C1=CCCC1)Cc1cccc2ccccc12"
reported_property = "MIC"
value_measured = 0.2

[[record]]
compound = "CN(C/C=C/CCc1ccccc1)Cc1cccc2ccccc12"
reported_property = "MIC"
value_measured = 12.5

[[record]]
compound = "CN(C/C=C/Cc1ccccc1)Cc1cccc2ccccc12"
reported_property = "MIC"
value_measured = 50

[[record]]
compound = "CN(C/C=C/C1CC=CCC1)Cc1cccc2ccccc12 (configuration not stated)"
reported_property = "MIC"
value_measured = 25

[[record]]
compound = "CC(/C=C/c1ccccc1)N(C)Cc1cccc2ccccc12 (configuration not stated)"
reported_property = "MIC"
value_measured = 25


a. CC(c1cccc2ccccc12)N(C)C/C=C/c1ccccc1 (configuration not stated)
b. ON(C/C=C/c1ccccc1)Cc1cccc2ccccc12
c. CN(C/C=C/c1ccccc1)Cc1cccc2c1CCCC2
Query :: Given 3 compounds, produce a descending ranking by MIC. Reply: labels, ordered per the request.
Result :: b, c, a

A. COc1ccc2c(CN(C)C/C=C/c3ccccc3)cccc2c1
B. CN(C/C=C/c1ccccc1)Cc1c(O)ccc2ccccc12
Query :: From the items above, decide which of A and B has the lower MIC reading. Refer to your chosen entry by its label in the reply.
Result :: A

a. CN(C/C=C/c1ccccc1)Cc1ccc2c(c1)C1CCC2C1 (configuration not stated)
b. CN(CC/C=C/c1ccccc1)Cc1cccc2ccccc12
Query :: Which is greater in MIC, the first item a or the second item b ? Refer to your chosen entry by its label in the reply.
Result :: a
(a: 50 µg/mL, b: 3.1 µg/mL)

I. C(=C\c1ccccc1)/CNCc1cccc2ccccc12
II. CCOC(=O)/C=C/C=C/CN(C)Cc1cccc2ccccc12
Query :: Which is greater in MIC, the first item I or the second item II ? Refer to your chosen entry by its label in the reply.
Result :: I
(I: 100 µg/mL, II: 3.1 µg/mL)

1. CN(CC(=O)c1ccccc1)Cc1cccc2ccccc12
2. CN(C/C=C/c1ccccc1)Cc1c2c(cc3c1CCC3)CCC2
Query :: Which is greater in MIC, the first item 1 or the second item 2 ? Refer to your chosen entry by its label in the reply.
Result :: 1
(1: 6.2 µg/mL, 2: 1.6 µg/mL)

----------
experiment: Antifungal activity against Trichophyton mentagrophytes.; type: functional, Arthroderma benhamiae; conditions: Trichophyton benhamiae
Reported Property: MIC (µg/mL)

Check out these entries, answers already filled in.
[[record]]
compound = "Cc1ccc(CN(C)C/C=C/c2ccccc2)c2ccccc12"
value_measured = 0.1

[[record]]
compound = "CN(C/C=C/Cc1ccccc1)Cc1cccc2ccccc12"
value_measured = 50

[[record]]
compound = "CN(C/C=C/c1ccccc1)Cc1ccc2ccccc2c1"
value_measured = 25

[[record]]
compound = "CN(C/C=C/c1cccc2ccccc12)Cc1ccccc1"
value_measured = 100

[[record]]
compound = "CN(CCCc1ccccc1)Cc1cccc2ccccc12"
value_measured = 12.5

[[record]]
compound = "CN(C/C=C/c1ccccc1)CC1CCCc2ccccc21 (stereo unspecified)"
value_measured = 6.2


I. CN(C/C=C/c1ccccc1)Cc1ccc(Cl)c2ccccc12
II. CN(C/C=C/c1ccccc1)C1CCCc2ccccc21 (stereo unspecified)
Query :: From the items above, decide which of I and II has the lower MIC reading. Refer to your chosen entry by its label in the reply.
Result :: I

----------
tested on: Microsporum canis; test: Antifungal activity against Microsporum canis; format: functional
Reported Property: MIC

Check out these entries, answers already filled in.
[[record]]
compound = "C(=C\\c1ccccc1)/COCc1cccc2ccccc12"
target_system = "Microsporum canis"
value_measured = "> 100 µg/mL"

[[record]]
compound = "C[N+](C)(C/C=C/c1ccccc1)Cc1cccc2ccccc12.[I-]"
target_system = "Microsporum canis"
value_measured = "> 100 µg/mL"

[[record]]
compound = "CN(C/C=C/c1ccccc1)Cc1ccccc1"
target_system = "Microsporum canis"
value_measured = "> 100 µg/mL"

[[record]]
compound = "C(=C\\c1ccccc1)/CN(C/C=C/c1ccccc1)Cc1cccc2ccccc12"
target_system = "Microsporum canis"
value_measured = "> 100 µg/mL"

[[record]]
compound = "C=CCN(C)Cc1cccc2ccccc12"
target_system = "Microsporum canis"
value_measured = "> 100 µg/mL"

[[record]]
compound = "CN(Cc1cccc2ccccc12)C(=O)/C=C/c1ccccc1"
target_system = "Microsporum canis"
value_measured = "> 100 µg/mL"

[[record]]
compound = "CN(C/C=C/CO)Cc1cccc2ccccc12"
target_system = "Microsporum canis"
value_measured = "> 100 µg/mL"

[[record]]
compound = "CN(C/C=C/c1ccccc1)C(c1ccccc1)c1ccccc1"
target_system = "Microsporum canis"
value_measured = "> 100 µg/mL"

[[record]]
compound = "CCOC(=O)/C=C/CN(C)Cc1cccc2ccccc12"
target_system = "Microsporum canis"
value_measured = "6.25 µg/mL"

[[record]]
compound = "CN(CCC(O)c1ccccc1)Cc1cccc2ccccc12 (stereo unspecified)"
target_system = "Microsporum canis"
value_measured = "> 100 µg/mL"


Query :: Would you mind telling me what MIC value was observed for "CN(C/C=C/c1ccccc1)CC1=CCCc2ccccc21" ?
Result :: ≤ 1.6 µg/mL

Query :: Would you mind telling me what MIC value was observed for "CN(C/C=C/C(=O)O)Cc1cccc2ccccc12" ?
Result :: < 100 µg/mL

Query :: Would you mind telling me what MIC value was observed for "C(=C\c1ccccc1)/CSCc1cccc2ccccc12" ?
Result :: > 100 µg/mL

Query :: Would you mind telling me what MIC value was observed for "CN(C/C=C/C(=O)OCc1ccccc1)Cc1cccc2ccccc12" ?
Result :: < 1.6 µg/mL

Query :: Would you mind telling me what MIC value was observed for "CC(=O)N(C/C=C/c1ccccc1)Cc1cccc2ccccc12" ?
Result :: > 100 µg/mL

Query :: Would you mind telling me what MIC value was observed for "C(=C\c1ccccc1)/CN(Cc1ccccc1)Cc1cccc2ccccc12" ?
Result :: > 100 µg/mL
